Value source: a melting point compilation (Tetko et al.; mined from patent text by program, amines drawn as free bases though some values may be those of a salt)

Endpoint: melting point

# Molecule, Endpoint, Observed measurement
measured = [
    ("Cc1c(NC(=O)CC(C)(C)C)c(C)c2c(c1C(C)O)OCC2c1ccc(C(C)C)cc1 (centres undefined)", "melting point", "156 to 157 °C"),
    ("CC(=O)Nc1ncc(CCc2ccc(NC(NC(=O)OC(C)(C)C)NC(=O)OC(C)(C)C)cc2)s1", "melting point", "203 to 205 °C"),
    ("CC(C)n1cc(-c2ccc(C=O)cc2)c2c(N)ncnc21", "melting point", "198 to 200 °C"),
    ("N#CNC(=Nc1ccncc1)NCCCCCOc1ccccc1", "melting point", "188 to 189 °C"),
    ("COc1ccc2cc(CN(C)C(=O)c3ccc(Oc4cc(Cl)cc(Cl)c4)o3)ccc2c1Br", "melting point", "115 to 117 °C"),
    ("Cc1c(C=O)c2c(c(C)c1NC(=O)CC(C)(C)C)C(c1ccc(C(C)C)cc1)CS2 (centres undefined)", "melting point", "134 to 140 °C"),
]

Q: What measured melting point goes with `Cn1cc(-c2cccc(F)c2)c(=O)c(-c2cccc(C(F)(F)F)c2)c1` ?
A: 94 to 96 °C

Q: Record request: melting point value, item `Cc1ccc2c(N)c3c(nc2c1)CCSC3`
A: 239 to 245 °C

Q: Would you kindly share the measured melting point for `COC(=O)COc1ccccc1Oc1cc(NC(C)=O)c(F)cc1Cl` ?
A: 139 °C

---

Readings of melting point for the listed compounds

# Compound, Observed measurement
records = [
    ("CCN(C(=O)CC(OC)(C(F)(F)F)C(F)(F)F)c1cn(-c2cccnc2)nc1C", "83 to 86 °C"),
    ("Cc1oc2c(NC(=O)c3c(Cl)cccc3Cl)cccc2c1CC1CCCCC1", "189 to 190 °C"),
    ("Fc1cccc(-c2nc(-c3ccccn3)no2)c1", "88 to 98 °C"),
    ("O=C(c1ccc(OCC2CO2)cc1)c1cccc(C(=O)c2ccc(OCC3CO3)cc2)c1 (stereo not given)", "88 to 93 °C"),
]

Q: Reported melting point, compound `Cc1ccnc(C(=O)c2[nH]c3ccc(Cl)cc3c2CC(=O)NCCO)c1` : ____
A: 196 °C

---

Endpoint: melting point

Q: Give the measured melting point of `CC(=O)Nc1cccc(CNC(=O)[C@H]2N(C(=O)[C@@H](O)[C@H](Cc3ccccc3)NC(=O)c3cccc(O)c3C)CSC2(C)C)c1` .
A: 145 to 147 °C

Q: Entry under review: `CP(=O)(O)CCC(=O)O` . Reported melting point?
A: 95 °C

Q: Look up melting point for this compound: `COc1cc2nc(O)nc(O)c2c(OC)c1OC`
A: > 250 °C

Q: GET /values?readout=melting point&item= `Cc1cc(C=O)cc(Oc2nc(Cl)nc(Cl)c2C(C)C)c1`
A: 227 to 229 °C

Q: Would you kindly share the measured melting point for `CC(=O)N1CCc2c(sc(C)c2CCBr)C1` ?
A: 93 to 95 °C

Q: Please give the measured melting point for this compound: `CC(C)(C)NC(=O)[C@@H]1CCCN1C(=O)[C@@H](O)[C@@H](N)Cc1ccccc1`
A: 159 to 161 °C

---

Listed here: items and their measured melting point.

Below: 5 molecules and their reported melting point.
# Molecule, Endpoint, Observed measurement
data = [
    ("Cc1nc(COC(=O)c2cccnc2C#N)cs1", "melting point", "93 °C"),
    ("COc1ccc(CNc2cc(C(N)=O)c([N+](=O)[O-])cc2[N+](=O)[O-])cc1Cl", "melting point", "180 to 182 °C"),
    ("CCCCCCCCCCCc1ccc(CCCC(N)(CO)CCO)cc1 (stereo not given)", "melting point", "73 to 76 °C"),
    ("O=C(Nc1ccc(F)cc1)c1nnc2ccccc2c1O", "melting point", "280 to 284 °C"),
    ("O=C(NCCCl)c1c(Cl)cccc1Cl", "melting point", "114 °C"),
]

Q: Sample `CCC#CCCOc1cc(/C=C/C(=O)Nc2ccccc2C(=O)O)ccc1OC` — what was its melting point?
A: 163 to 165 °C

Q: Need melting point of COc1cc(Cn2ccc3ncnc-3c2)ccc1C(=O)N(C1CCCC1)C1CC(C)CC(C)C1 (stereo not given) , thanks.
A: 218 to 220 °C

Q: Quick check: melting point of `Cn1nc(-c2cc(N)c(F)cc2F)c(Cl)c1C(F)(F)F` ?
A: 82 °C

Q: Give the measured melting point of `C(=C\c1nc(COc2ccc(CCCn3ccnc3)cc2)cs1)/c1ccccc1` .
A: 129 to 130 °C

Q: Consider the molecule shown here: `O=C(O)/C=C/c1cn(Cc2ccc(OCc3csc(-c4ccccc4)n3)cc2)nc1-c1cccs1` What is its recorded melting point?
A: 137 to 138 °C
